protocol: in vivo
condition.notes: mouse
property.measured: MTD

compound | MTD
CCc1c2c(nc3ccc(OC(=O)N4CCC(N5CCCCC5)CC4)cc13)-c1cc3c(c(=O)n1C2)COC(=O)[C@]3(O)CC | 9 to 10 mg/kg

Shift focus to the following entry.
# MTD (compound: CC[C@@]1(O)C(=O)OCc2c1cc1n(c2=O)Cc2cc3ccccc3nc2-1 [CPT, camptothecin, reference compound] ) is 9 to 10 mg/kg
